# Assay Overview: Phase 1 Part 2 plasma pharmacokinetics (mild asthma)
# Type: in vivo, human
# Setup Conditions: human, plasma, inhaled, 2 mg, 2 mg QD, Day 10, read-out: AUC0-24 hours Geometric mean
Readout Kind: AUC(0-t)

Identify measured AUC(0-t) corresponding to Cn1c(=O)n([C@H]2CCCN(C(=O)CC#N)C2)c2nc(-c3cnn4ccccc34)ccc21 [Compound I]
71.9 ng·h/mL

* * *

# Assay Overview: 13-week inhalation toxicology study, NHP model
# Assay type: in vivo
# Setup Conditions: monkey, in vivo, inhaled or intranasal, 2.7 mg/kg/day, NHP, inhaled 2.7 mg/kg/day, Week 13; read-out: AUC0-24
Readout Kind: AUC(0-t) (ng·h/mL)
One number for each entry, in ng·h/mL.

Identify measured AUC(0-t) corresponding to Cn1c(=O)n([C@H]2CCCN(C(=O)CC#N)C2)c2nc(-c3cnn4ccccc34)ccc21
361

* * *

# Assay Overview: Phase 1 Part 2 plasma pharmacokinetics (mild asthma)
# Format: in vivo, human
# Setup Conditions: human, plasma, inhaled, 8 mg, 8 mg BID, Day 10, read-out: AUC0-∞ Mean
Readout Kind: AUC(0-inf) (ng·h/mL)
Answers are plain numbers, in ng·h/mL.

Identify measured AUC(0-inf) corresponding to Cn1c(=O)n([C@H]2CCCN(C(=O)CC#N)C2)c2nc(-c3cnn4ccccc34)ccc21
747

* * *

# Assay Overview: Phase 1 Part 2 plasma pharmacokinetics (mild asthma)
# Assay type: in vivo, human
# Setup Conditions: human, plasma, inhaled, 0.6 mg, 0.6 mg QD, Day 10, read-out: AUCover dosing interval Geometric mean
Readout Kind: AUC (ng·h/mL)
Answers are plain numbers, in ng·h/mL.

Identify measured AUC corresponding to Cn1c(=O)n([C@H]2CCCN(C(=O)CC#N)C2)c2nc(-c3cnn4ccccc34)ccc21
20.3

* * *

# Assay Overview: Phase 1 Part 2 plasma pharmacokinetics (mild asthma)
# Assay type: in vivo, human
# Setup Conditions: human, plasma, inhaled, 0.6 mg, 0.6 mg QD, Day 10, read-out: AUC0-12 hours Mean
Readout Kind: AUC0-12h (ng·h/mL)
Give bare numbers, in ng·h/mL.

Identify measured AUC0-12h corresponding to Cn1c(=O)n([C@H]2CCCN(C(=O)CC#N)C2)c2nc(-c3cnn4ccccc34)ccc21 [Compound I]
16.1

* * *

# Assay Overview: 13-week inhalation toxicology study, rat model
# Assay type: in vivo
# Setup Conditions: in vivo, inhaled or intranasal; rat, 13-week inhalation, highest dose
Readout Kind: NOAEL at 13 weeks (mg/kg/day)
One number for each entry, in mg/kg/day.

Identify measured NOAEL at 13 weeks corresponding to Cn1c(=O)n([C@H]2CCCN(C(=O)CC#N)C2)c2nc(-c3cnn4ccccc34)ccc21
11.9

* * *

# Assay Overview: Phase 1 Part 3 plasma pharmacokinetics (moderate to severe asthma)
# Type: in vivo, human
# Setup Conditions: human, plasma, inhaled, 4 mg, 4 mg BID, Day 10, read-out: AUC0-last non-zero Mean
Readout Kind: AUC(0-t)
Remember to put the unit after the number in your answer.

Identify measured AUC(0-t) corresponding to Cn1c(=O)n([C@H]2CCCN(C(=O)CC#N)C2)c2nc(-c3cnn4ccccc34)ccc21
438 ng·h/mL

* * *

# Assay Overview: Phase 1 Part 2 plasma pharmacokinetics (mild asthma)
# Type: in vivo, human
# Setup Conditions: human, plasma, inhaled, 8 mg, 8 mg BID, Day 10, read-out: Cmax Mean
Readout Kind: Cmax (ng/mL)
Answers are plain numbers, in ng/mL.

Identify measured Cmax corresponding to Cn1c(=O)n([C@H]2CCCN(C(=O)CC#N)C2)c2nc(-c3cnn4ccccc34)ccc21 [Compound I]
60.4

Data provenance: patent US20240261224A1
